From: patent US9795687B2

- Tested on: pronase
- procedureDetails: Proteolytic stability against pronase digestion (HPLC)
- Format: in vitro ADME, Streptomyces griseus K-1
- conditionDescription: pH 7.8 and pH 9.0 for 18 h
endpointLabel: susceptibility to pronase digestion

INSERT INTO measurements (compoundstructure, endpointresult) VALUES
  ('CC(C)CN(C(=O)CCCOc1cccc(-c2nc3ccc(-c4nc5cc(N6CCN(C)CC6)ccc5[nH]4)cc3[nH]2)c1)[C@H](C)C(=O)N(CC(C)C)[C@H](C)C(=O)N(CC(C)C)[C@H](C)C(=O)N(CC(C)C)[C@H](C)C(=O)N[C@@H](CCCCNC(=O)CCCOc1cccc(-c2nc3cc(-c4nc5cc(N6CCN(C)CC6)ccc5[nH]4)ccc3[nH]2)c1)C(N)=O', 'proteolytically unstable'),
  ('C[C@H](NC(=O)CCCOc1cccc(-c2nc3ccc(-c4nc5cc(N6CCN(C)CC6)ccc5[nH]4)cc3[nH]2)c1)C(=O)N[C@@H](C)C(=O)N[C@@H](C)C(=O)N[C@@H](C)C(=O)N[C@@H](CCCCNC(=O)CCCOc1cccc(-c2nc3cc(-c4nc5cc(N6CCN(C)CC6)ccc5[nH]4)ccc3[nH]2)c1)C(N)=O', 'proteolytically unstable');

----------
- Test system: pronase
- procedureDetails: Proteolytic stability against pronase digestion (HPLC)
- Assay type: in vitro ADME, Streptomyces griseus K-1
- Set-up: key: +: Pronase stable; ++: Intermediate Pronase stability; +++: Pronase unstable
- conditionDescription: pH 7.8, 37° C., 18 h, 400 μM compound
endpointLabel: Pronase Degradation (pH 7.8)

INSERT INTO results (compoundstructure, subjectoftest, endpointresult) VALUES
  ('CN1CCN(c2ccc3[nH]c(-c4ccc5nc(-c6cccc(OCCCC(=O)NCCCNCCCCNCCCNC(=O)CCCOc7cccc(-c8nc9ccc(-c%10nc%11cc(N%12CCN(C)CC%12)ccc%11[nH]%10)cc9[nH]8)c7)c6)[nH]c5c4)nc3c2)CC1', 'pronase', '+'),
  ('CCCN(CC(=O)N[C@@H](CCCCNC(=O)CCCOc1cccc(-c2nc3cc(-c4nc5cc(N6CCN(C)CC6)ccc5[nH]4)ccc3[nH]2)c1)C(N)=O)C(=O)CN(CCC)C(=O)CN(CCC)C(=O)CN(CCC)C(=O)CCCOc1cccc(-c2nc3ccc(-c4nc5cc(N6CCN(C)CC6)ccc5[nH]4)cc3[nH]2)c1', 'pronase', '++'),
  ('C[C@@H](C(=O)N(C)[C@@H](C)C(=O)N(C)[C@@H](C)C(=O)N(C)[C@@H](C)C(=O)N[C@@H](CCCCNC(=O)CCCOc1cccc(-c2nc3cc(-c4nc5cc(N6CCN(C)CC6)ccc5[nH]4)ccc3[nH]2)c1)C(N)=O)N(C)C(=O)CCCOc1cccc(-c2nc3ccc(-c4nc5cc(N6CCN(C)CC6)ccc5[nH]4)cc3[nH]2)c1', 'pronase', '++'),
  ('CCCN(C(=O)CCCOc1cccc(-c2nc3ccc(-c4nc5cc(N6CCN(C)CC6)ccc5[nH]4)cc3[nH]2)c1)[C@H](C)C(=O)N(CCC)[C@H](C)C(=O)N(CCC)[C@H](C)C(=O)N(CCC)[C@H](C)C(=O)N[C@@H](CCCCNC(=O)CCCOc1cccc(-c2nc3cc(-c4nc5cc(N6CCN(C)CC6)ccc5[nH]4)ccc3[nH]2)c1)C(N)=O', 'pronase', '++'),
  ('CN1CCN(c2ccc3nc(-c4ccc5nc(-c6cccc(OCCCC(=O)NCCNC(=O)CNC(=O)CNC(=O)CNC(=O)CCCOc7cccc(-c8nc9ccc(-c%10nc%11ccc(N%12CCN(C)CC%12)cc%11[nH]%10)cc9[nH]8)c7)c6)[nH]c5c4)[nH]c3c2)CC1', 'pronase', '++');

// next item, Pronase Degradation (pH 7.8) requested
Task item: I am curious: what Pronase Degradation (pH 7.8) value has been reported for CC(C)CN(C(=O)CCCOc1cccc(-c2nc3ccc(-c4nc5cc(N6CCN(C)CC6)ccc5[nH]4)cc3[nH]2)c1)[C@H](C)C(=O)N(CC(C)C)[C@H](C)C(=O)N(CC(C)C)[C@H](C)C(=O)N(CC(C)C)[C@H](C)C(=O)N[C@@H](CCCCNC(=O)CCCOc1cccc(-c2nc3cc(-c4nc5cc(N6CCN(C)CC6)ccc5[nH]4)ccc3[nH]2)c1)C(N)=O ?
Reply: +++
